- Test system: HCC-2998 colon
- EXPERIMENTAL PROTOCOL: NCI-60 one-dose screen, 48 h
- MEASUREMENT SETUP: 10 µM unless noted
Compounds without any hit were thinned out: in the full panel of roughly 83,000, 20% have a hit. The source made the active and inactive calls. Rule for the calls: active = growth percent below 10; inactive = the rest.
Choose one outcome from this list and give only that: active, inactive

# fetch the recorded call for `O=C1/C(=C\c2ccco2)SC(=S)N1CCc1ccc(O)cc1` here
inactive

What outcome does the record of this test show for `CC1(C)C(=O)CC[C@]2(C)[C@H]3C(=O)C=C4[C@@H]5C[C@@](C)(C(=O)NCCNCCN)CC[C@]5(C)CC[C@@]4(C)[C@]3(C)CC[C@@H]12` ?
inactive

Please state the recorded outcome for this compound: `CCSc1sc(-c2ccc(C)cc2)nc1[P+](c1ccccc1)(c1ccccc1)c1ccccc1`
active

What call does the record list for `Cn1cc(-c2csc(-c3cn(CCCN4CCCCC4)c4ccc(F)cc34)n2)c2cccnc21` ?
inactive

Outcome logged for `CCCCCCCN(CCCCCCC)C(=N)c1ccnc2ccccc12` in this assay:
active

Status in this test for `COC(=O)[C@]12CC[C@@H](C)[C@H](C)[C@@H]1C1=CC(=O)[C@@H]3[C@@]4(C)C[C@@H](O)[C@H](O)[C@@]5(C)COC(=C45)C[C@@]3(C)[C@]1(C)CC2` ?
inactive

Could you please tell me the result logged for `COc1cccc(-c2nn(-c3ccccc3)cc2-c2ccnc(NCCNS(=O)(=O)c3ccccc3)c2)c1` in this assay?
inactive

Check the results log: what was the call for `Fc1ccc2c(c1)c(-c1nc(-c3c[nH]c4ncccc34)cs1)cn2CCCN1CCCCC1` ?
inactive

* * *

- Test system: ACHN renal
- EXPERIMENTAL PROTOCOL: NCI-60 one-dose screen, 48 h (100 = growth as untreated, 0 = no growth, -100 = all killed)
- MEASUREMENT SETUP: 10 µM unless noted
Compounds without any hit were thinned out: in the full panel of roughly 83,000, 20% have a hit.
Would you mind labelling by growth? At or over 80% is 1 (yes), under is 0 (no).

Threshold query (growth >= 80%) on `COc1ccc(-n2c(/C=C/c3ccc(O)c(OC)c3)cc(/C=C/c3ccc(O)c(OC)c3)nc2=O)cc1`
0 (no)

Is growth for `CC(C)=CCC[C@](C)(O)[C@H]1CC[C@]2(C)[C@@H]1CC[C@@H]1[C@@]3(C)C/C(=C/c4cccc([N+](=O)[O-])c4)C(=O)C(C)(C)[C@@H]3CC[C@]12C` at or above 80%?
1 (yes)

In plain terms: is recorded growth at least 80% for `COc1cccc(-c2nn(-c3ccccc3)cc2-c2ccnc(NCCCNS(=O)(=O)c3ccc(Br)cc3)c2)c1` ?
0 (no)

Does the reported growth for `Cc1cc(C)c(NC(=O)c2sc3nc4c(cc3c2N)CCCC4)c(C)c1` fall at or above the 80% mark?
0 (no)

Decide: is the reported value of growth for `C=C(C)[C@@H]1CC[C@]2(C=O)CC[C@]3(C)[C@H](CC[C@@H]4[C@@]5(C)C/C(=C/c6cccnc6)C(=O)C(C)(C)[C@@H]5CC[C@]43C)[C@@H]12` equal to or greater than 80%?
0 (no)

# check: growth of `COc1ccc(/C=C(\C#N)c2cc3ccccc3n2S(C)(=O)=O)cc1` is greater than or equal to 80%
1 (yes)

Confirm if growth reported for the molecule `O=C1Nc2ccccc2/C1=C/c1cn(CCCn2c3ccccc3c(=O)c3ccccc32)c2ccccc12` is 80% or above.
1 (yes)

* * *

- Tested on: A549/ATCC NSCLC
- EXPERIMENTAL PROTOCOL: NCI-60 one-dose screen, 48 h (100 = growth as untreated, 0 = no growth, -100 = all killed)
- MEASUREMENT SETUP: 10 µM unless noted
- Description: Growth inhibition of the A549/ATCC human Non-Small Cell Lung tumor cell line is measured as a screen for anti-cancer activity. Cells are grown in 96 well plates and exposed to the test compound for 48 hours. Compounds are tested at a single concentration, which is 10^-5 M for most compounds. The reported endpoint is percent growth (GI% or GIPRCNT), where numbers from 0 - 100% represent growth inhibition, and numbers from -100% - 0 represent cell death. […]
Compounds without any hit were thinned out: in the full panel of roughly 83,000, 20% have a hit.
Lab note: compare growth with 90%, writing condition met if less and condition not met if equal or more.

Take the compound `CC1(C)CC[C@]2(CO)CC[C@]3(C)C(=CC[C@@H]4[C@@]5(C)CC[C@H](NCO)C(C)(C)[C@@H]5CC[C@]43C)[C@@H]2C1` and say whether its growth is less than 90%.
condition met

Does the reported growth of the following compound sit strictly below 90%? `Cc1ccc(S(=O)(=O)Nc2ccc(-c3cc(-c4cccc(F)c4)c(C#N)c(=O)[nH]3)cc2)cc1`
condition met

Bench note: check whether `Cc1cc(N(CCCNc2ccnc3cc(Cl)ccc23)Cc2ccco2)nc(N2CCN(C)CC2)n1` shows growth below 90%
condition met

Does this compound meet the criterion growth < 90%? CC1(C)c2ccccc2C(=O)C1(Br)Cc1ccccc1 (configuration not stated)
condition not met

growth under 90%? Item: `O=C1NC(=Nc2ccc(S(=O)(=O)Nc3nccs3)cc2)S/C1=C\c1coc2ccccc2c1=O`
condition not met

# TODO verify growth < 90% strictly for this compound: `C[C@H]1[C@H]2C3=CC[C@@H]4[C@@]5(C)C/C(=C/c6ccco6)C(=O)C(C)(C)[C@@H]5CC[C@@]4(C)[C@]3(C)CC[C@@]2(C(=O)N2CCOCC2)CC[C@@H]1C`
condition met

Would you kindly verify if growth of `CC(C)C[C@@H](NC(=O)[C@@H](Cc1ccccc1)NC(=O)c1cnccn1)B1O[C@H]2[C@H](O)[C@@H](C(=O)NCCCC[C@@H]3NC(=O)[C@@H](Cc4ccccc4)NC(=O)[C@H](CC(=O)O)NC(=O)CNC(=O)[C@H](CCCN=C(N)N)NC3=O)O[C@@H](CN)[C@H]2O1` is strictly less than 90%?
condition met

# TODO verify growth < 90% strictly for this compound: `S=c1[nH]nc2ccccn12`
condition not met

Given `Brc1ccc2[nH]cc(-c3nc(-c4c[nH]c5ncccc45)cs3)c2c1` , is recorded growth strictly lower than 90%?
condition met

growth under 90%? Item: `Cn1cc(-c2nc(-c3c[nH]c4ncccc34)cs2)c2cc(F)ccc21`
condition met

Quick check: growth of `O=C1CNCCN1` under 90%?
condition not met

Just wondering, is growth of `COc1cc2nc(Cl)nc(Nc3cccc(C(=O)/C=C/c4ccc(F)cc4)c3)c2cc1OC` below 90%?
condition met

Does the reported growth of the following compound sit strictly below 90%? COc1ccc(OCC(CO)N2CCN(c3ccccc3)CC2)cc1 (configuration not stated)
condition not met

Regarding `CCN1CCN(C(=O)[C@]23CCC(C)(C)C[C@@H]2C2=CC[C@@H]4[C@@]5(C)C/C(=C/c6cccnc6)C(=O)C(C)(C)[C@@H]5CC[C@@]4(C)[C@]2(C)CC3)CC1` , kindly confirm whether its growth is beneath 90%.
condition met

Please check: growth for `COc1cc(-c2cc3ncccc3c3nc(N)c4cccnc4c23)cc(OC)c1OC` , strictly under 90% or not?
condition met

* * *

- Tested on: NCI-H460 lung
- EXPERIMENTAL PROTOCOL: NCI-60 one-dose screen, 48 h (100 = growth as untreated, 0 = no growth, -100 = all killed)
- MEASUREMENT SETUP: 10 µM unless noted
This is part of a sample that, as a whole, favours compounds with a hit. Of some 83,000 tested, about 20% had one in any assay.
MEASURED ATTRIBUTE: growth (%)
Give a bare numeral; the unit % is implied.

What value of growth has been recorded for this entry: `c1ccc2[nH]c(-c3cc(-c4ccc5c(c4)OCO5)n[nH]3)nc2c1`
46.4

Please report the recorded growth for `CCc1ccccc1NC(=O)c1sc2nc3c(cc2c1N)CCCC3` .
20.6

Suppose we examine the molecule `C=C(C)[C@@H]1CC[C@]2(CN)CC[C@]3(C)[C@H](CC[C@@H]4[C@@]5(C)CCC(=O)NC(C)(C)[C@@H]5CC[C@]43C)[C@@H]12` ; what growth value has been reported?
90.3

Endpoint output: growth of `O=C1/C(=C\c2ccc(Br)o2)SC(=S)N1CCc1ccc(O)cc1` . Value?
107

State the recorded growth for this entry: `C=C(C)[C@@H]1CC[C@]2(C(=O)OC)CC[C@]3(C)[C@H](CC[C@@H]4[C@@](C)(CC/C(N)=N/O)[C@H](C(=C)C)CC[C@]43C)[C@@H]12`
99.5

Fill in: growth of `C=C(C)[C@@H]1CC[C@]2(C(=O)O)CC[C@]3(C)[C@H](CC[C@@H]4[C@@]5(C)C/C(=C/c6ccc(OC)cc6)C(=O)C(C)(C)[C@@H]5CC[C@]43C)[C@@H]12` is ___
1.81

Could you tell me which growth is on file for `C/C(=N\Nc1cc(C)c2cc(C)ccc2n1)c1ccccn1` ?
-68.7

Fill in the blank: the reported growth of `Clc1ccc2[nH]cc(-c3nc(-c4c[nH]c5ncccc45)cs3)c2c1` is ____.
19

Quick check: growth of `Clc1ccc2c(NCCNc3nc(-c4ccccc4)cc(-c4ccccc4)n3)ccnc2c1` ?
-73
